Data credit: ChEMBL document CHEMBL3352053

Test: Antioxidant activity assessed as DPPH radical scavenging activity after 10 mins
Assay type: physicochemical
assayEndpoint: IC50 (µM)

The cases that follow already have their IC50 on record.
COc1cc(C2Oc3cc([C@H]4Oc5cc(O)cc(O)c5C(=O)[C@@H]4O)ccc3OC2CO)ccc1O (stereo partly specified) [SILIBININ]    392
COc1cc([C@H]2Oc3cc([C@H]4Oc5cc(O)cc(O)c5C(=O)[C@@H]4O)ccc3O[C@H]2COP(=O)([O-])OC2O[C@H](CO)[C@H](O)[C@H](O)[C@H]2O)ccc1O.[Na+] (stereo partly specified)    233
COc1cc([C@H]2Oc3cc([C@H]4Oc5cc(O)cc(O)c5C(=O)[C@@H]4O)ccc3O[C@H]2COP(=O)([O-])OC2O[C@H](CO)[C@@H](O)[C@H](O)[C@@H]2O)ccc1O.[Na+] (stereo partly specified)    108

(A) COc1cc([C@H]2Oc3cc(-c4oc5cc(O)cc(O)c5c(=O)c4O)ccc3O[C@@H]2CO)ccc1O
(B) COc1cc([C@H]2Oc3cc([C@H]4Oc5cc(O)cc(O)c5C(=O)[C@@H]4O)ccc3O[C@H]2COP(=O)([O-])OC2O[C@H](CO)[C@H](OC3O[C@H](CO)[C@H](O)[C@H](O)[C@H]3O)[C@H](O)[C@H]2O)ccc1O.[Na+] (stereo partly specified)
-- ask Quick one: lower IC50, A or B ? Reply with the label of the item you choose.
-- reply A

* * *

Experiment: Inhibition of xanthine oxidase in human MKN28 cells assessed as inhibition of xanthine oxidase-induced cell damage by measuring cell viability at 10 to 200 uM after 48 hrs by MTT assay
Assay type: cell-based
Conditions: mkn-28, 48 h
assayEndpoint: Activity (%)
Number only, in %; omit the unit.

The cases that follow already have their Activity on record.
COc1cc(C2Oc3cc([C@H]4Oc5cc(O)cc(O)c5C(=O)[C@@H]4O)ccc3OC2CO)ccc1O (stereo not given in full)    42.4
COc1cc([C@H]2Oc3cc([C@H]4Oc5cc(O)cc(O)c5C(=O)[C@@H]4O)ccc3O[C@H]2COP(=O)([O-])OC2O[C@H](CO)[C@@H](O)[C@H](O)[C@@H]2O)ccc1O.[Na+] (stereo not given in full)    42.3
COc1cc([C@H]2Oc3cc([C@H]4Oc5cc(O)cc(O)c5C(=O)[C@@H]4O)ccc3O[C@H]2COP(=O)([O-])OC2O[C@H](CO)[C@H](OC3O[C@H](CO)[C@H](O)[C@H](O)[C@H]3O)[C@H](O)[C@H]2O)ccc1O.[Na+] (stereo not given in full)    48.4
COc1cc([C@H]2Oc3cc([C@H]4Oc5cc(O)cc(O)c5C(=O)[C@@H]4O)ccc3O[C@H]2COP(=O)([O-])OC2O[C@H](CO)[C@H](O)[C@H](O)[C@H]2O)ccc1O.[Na+] (stereo not given in full)    42.8

Let's switch to this compound now.
-- ask Give a short answer stating reported Activity for COc1cc([C@H]2Oc3cc([C@H]4Oc5cc(O)cc(O)c5C(=O)[C@@H]4O)ccc3O[C@H]2COP(=O)([O-])OC2O[C@H](CO)[C@@H](O)[C@H](O)[C@H]2O)ccc1O.[Na+] (stereo not given in full) .
-- reply 42.7

* * *

Experiment: Toxicity in human MKN28 cells assessed as cell viability at 10 to 200 uM after 48 hrs by MTT assay
Type: cell-based, MKN-28
Conditions: read-out: Activity
Reported values of viability at 48 h, up to 200 µM for individual entries
Number only, in %; omit the unit.

-- ask Give a short answer stating reported viability at 48 h, up to 200 µM for COc1cc([C@H]2Oc3cc([C@H]4Oc5cc(O)cc(O)c5C(=O)[C@@H]4O)ccc3O[C@H]2COP(=O)([O-])OC2O[C@H](CO)[C@H](OC3O[C@H](CO)[C@H](O)[C@H](O)[C@H]3O)[C@H](O)[C@H]2O)ccc1O.[Na+] (stereo not given in full) .
-- reply 91.8

-- ask Give a short answer stating reported viability at 48 h, up to 200 µM for COc1cc([C@H]2Oc3cc([C@H]4Oc5cc(O)cc(O)c5C(=O)[C@@H]4O)ccc3O[C@H]2COP(=O)([O-])OC2O[C@H](CO)[C@H](O)[C@H](O)[C@H]2O)ccc1O.[Na+] (stereo not given in full) .
-- reply 84.1

-- ask Give a short answer stating reported viability at 48 h, up to 200 µM for COc1cc(C2Oc3cc([C@H]4Oc5cc(O)cc(O)c5C(=O)[C@@H]4O)ccc3OC2CO)ccc1O (stereo not given in full) [SILIBININ] .
-- reply 45.3

-- ask Give a short answer stating reported viability at 48 h, up to 200 µM for COc1cc([C@H]2Oc3cc([C@H]4Oc5cc(O)cc(O)c5C(=O)[C@@H]4O)ccc3O[C@H]2COP(=O)([O-])OC2O[C@H](CO)[C@@H](O)[C@H](O)[C@H]2O)ccc1O.[Na+] (stereo not given in full) .
-- reply 89.2

-- ask Give a short answer stating reported viability at 48 h, up to 200 µM for COc1cc([C@H]2Oc3cc([C@H]4Oc5cc(O)cc(O)c5C(=O)[C@@H]4O)ccc3O[C@H]2COP(=O)([O-])OC2O[C@H](CO)[C@@H](O)[C@H](O)[C@@H]2O)ccc1O.[Na+] (stereo not given in full) .
-- reply 89.5
